System: CP192
Test: qHTS profiling for inhibitors of Plasmodium falciparum proliferation (AID 504749); also: nearly all actives have a fitted effect of over 60% in size
Settings: P. falciparum in erythrocytes, SYBR Green DNA, 72 h; series mostly up to 28.7 µM
Inconclusive results are not listed. Calls of active or inactive are those of the source. Calls follow the shape of the dose curve; as a rule, active = well fitted inhibition curve with a large enough effect; inconclusive = small, poorly fitted or top-dose-only effect; inactive = flat fitted curve, though single readings scatter.
// allowed return values: true for active, false for inactive

Kindly provide the recorded test outcome for the following compound: CCOC(=O)OC(C)OC1=C(C(=O)Nc2ccccn2)N(C)S(=O)(=O)c2ccccc21 (stereo not drawn)
false

* * *

Tested on: UISO
Test: qHTS assay to identify novel small-molecules to repurpose for Merkel cell carcinoma treatment (AID 1296009); also: nearly all actives have a fitted effect of over 60% in size
Conditions: MCC and control cell lines, CellTiter-Glo viability, 72 h; series mostly up to 46 µM
Records with an inconclusive call do not appear. Activity calls are given as the source filed them. Calls come from the whole dose curve; as a rule, active = well fitted inhibition curve with a large enough effect; inconclusive = small, poorly fitted or top-dose-only effect; inactive = flat fitted curve, though single readings scatter.
Write down the outcome that applies. Available outcomes: 1 = active, -1 = inactive

A selection of reference data follows.
- compound: "C[C@]12C=CC(=O)C=C1[C@@H](F)C[C@@H]1[C@@H]2[C@@H](O)C[C@@]2(C)[C@H]1CC[C@]2(O)C(=O)CO"
  label_value: -1
- compound: "CC(Cc1cccc(C(F)(F)F)c1)NCCOC(=O)c1ccccc1 (stereo not given)"
  label_value: -1
- compound: "C[n+]1c2cc(N)ccc2cc2ccc(N)cc21 (tested in a mixture with another compound)"
  label_value: 1
- compound: "CCOC(=O)n1ccn(C)c1=S"
  label_value: -1

Assay outcome for `CC(=O)OCC(=O)NCCCOc1cccc(CN2CCCCC2)c1` : what was it?
-1

* * *

System: CP185
Test: qHTS profiling for inhibitors of Plasmodium falciparum proliferation (AID 504749); also: nearly all actives have a fitted effect of over 60% in size
Conditions: P. falciparum in erythrocytes, SYBR Green DNA, 72 h; series mostly up to 28.7 µM
Results filed as inconclusive are left out. Calls of active or inactive are those of the source. Calls follow the shape of the dose curve; as a rule, active = well fitted inhibition curve with a large enough effect; inconclusive = small, poorly fitted or top-dose-only effect; inactive = flat fitted curve, though single readings scatter.
Pick one and only one: 1 = active, -1 = inactive

A selection of reference data follows.
- molecule: "CCCCCCCCCCCCCCCC[N+](C)(C)CC"
  label_value: 1
- molecule: "C[C@@H]1C(=O)NC2=Nc3cccc(Cl)c3CN21"
  label_value: -1
- molecule: "CC/C(=C(/CC)c1ccc(O)cc1)c1ccc(O)cc1"
  label_value: -1
- molecule: "O=c1ccc2ccccc2o1"
  label_value: -1
- molecule: "CN=C(NC#N)NCCSCc1csc(N=C(N)N)n1"
  label_value: -1
- molecule: "NC(CO)(CO)CO"
  label_value: -1
- molecule: "COC1=CC(=O)C[C@@H](C)[C@]12Oc1c(Cl)c(OC)cc(OC)c1C2=O"
  label_value: -1
- molecule: "CC(C)(C)CC(C)(C)c1ccc(O)c(Cc2ccc(Cl)cc2Cl)c1"
  label_value: 1

Short answer needed: outcome of this test for `C[C@H](O)C(=O)Nc1c(I)c(C(=O)NC(CO)CO)c(I)c(C(=O)NC(CO)CO)c1I` ?
-1

Tell me the assay call for `CC(=O)Oc1ccc(C(c2ccc(OC(C)=O)cc2)c2ccccn2)cc1` please.
-1

Name the outcome recorded for `O=C(OCCOCCO)c1ccccc1Nc1cccc(C(F)(F)F)c1` in the assay.
-1

Hi, sorry to bother you, what did the test record for `NC(=NCCCCCCN=C(N)/N=C(\N)Nc1ccc(Cl)cc1)/N=C(\N)Nc1ccc(Cl)cc1` ?
1

Recorded call for Cc1ccc(C(=O)C(C)CN2CCCCC2)cc1 (stereo not drawn) ?
-1

Hi team, can someone confirm the assay call for CC(Cc1cccc(C(F)(F)F)c1)NCCOC(=O)c1ccccc1 (stereo not drawn) ?
-1

Entry source: PubChem BioAssay (NCATS)
